System: PC3
Experiment: In vitro anticancer screening, MTT cell viability
Format: cell-based
Settings: Homo sapiens, PC-3; PC3, MTT, 48 h
pIC50: −log10 of the molar value.
MEASURE_NAME: pIC50

COc1cccc2c1C(=O)c1c(O)c3c(c(O)c1C2=O)C[C@@](O)(C(=O)CO)C[C@@H]3O[C@H]1C[C@H](N)[C@H](O)[C@H](C)O1 [doxorubicin, reference compound]    5.17
COc1cccc(-c2cc(-c3cccnc3)nc3nc(-n4[nH]c(C)cc4=O)[nH]c(=O)c23)c1    5.28

src = patent US10100054B1
